Tested on: P. aeruginosa strain MP-3
Assay: Broth dilution MIC determination (CLSI) against P. aeruginosa strain MP-3
Format: cell-based
Settings: Pseudomonas aeruginosa, MP3
endpoint name: MIC

Example entries begin here.
compound: CC[C@H]1OC(=O)C(C)C(=O)[C@H](C)[C@@H](O[C@@H]2O[C@H](CCC(C)C)CC(N(C)C)[C@H]2O)[C@](C)(OC)C[C@@H](C)CN[C@H](C)[C@H]2NC(=O)O[C@@]21C (stereo partly drawn)
endpoint name: MIC
observed value: ≥ 32 µg/mL
//
compound: CC[C@H]1OC(=O)[C@@]2(C)CCO[C@](C)(C[C@@H](C)CN[C@H](C)[C@H]3NC(=O)O[C@@]31C)[C@H](O[C@@H]1O[C@H](CNCc3cccnc3)C[C@H](N(C)C)[C@H]1O)[C@@H](C)C2=O
endpoint name: MIC
observed value: ≥ 32 µg/mL

Q: Lab request: please report MIC under test system P. aeruginosa strain MP-3 for CC[C@H]1OC(=O)C(C)C(=O)[C@H](C)[C@@H](OC2OC(CN(C)C3CC3)CC(N(C)C)C2O)[C@](C)(OC)C[C@@H](C)CN[C@H](C)[C@H]2NC(=O)O[C@@]21C (stereo partly drawn)
Ans: ≥ 32 µg/mL

* * *

System: P. aeruginosa strain MP-3
Assay: Broth dilution MIC determination (CLSI) against P. aeruginosa strain MP-3
Format: cell-based
Conditions: Pseudomonas aeruginosa, MP3
endpoint name: MIC

Please review the entries below; each comes with its answer.
compound: CC[C@H]1OC(=O)C(C)C(=O)[C@H](C)[C@@H](OC2OC(CNCCC(F)(F)F)CC(N(C)C)C2O)[C@](C)(OC)C[C@@H](C)CN[C@H](C)[C@H]2NC(=O)O[C@@]21C (stereo partly drawn)
observed value: ≥ 32 µg/mL
--
compound: CC[C@H]1OC(=O)C(C)C(=O)[C@H](C)[C@@H](O[C@@H]2OC(CNc3cccnc3)CC(N(C)C)C2O)[C@](C)(OC)C[C@@H](C)CN[C@H](C)[C@H]2NC(=O)O[C@@]21C (stereo partly drawn)
observed value: ≥ 32 µg/mL
--
compound: CC[C@H]1OC(=O)C(C)C(=O)[C@H](C)[C@@H](O[C@@H]2OC(CNCc3cncc(-n4cncn4)n3)CC(N(C)C)C2O)[C@](C)(OC)C[C@@H](C)CN[C@H](C)[C@H]2NC(=O)O[C@@]21C (stereo partly drawn)
observed value: ≥ 32 µg/mL
--
compound: CC[C@H]1OC(=O)C(C)C(=O)[C@H](C)[C@@H](O[C@@H]2O[C@H](C(C)N)CC(N(C)C)[C@H]2O)[C@](C)(OC)C[C@@H](C)CN[C@H](C)[C@H]2NC(=O)O[C@@]21C (stereo partly drawn)
observed value: ≥ 32 µg/mL
--
compound: CC[C@H]1OC(=O)C(C)C(=O)[C@H](C)[C@@H](O[C@@H]2OC(CNCc3nccn3C)CC(N(C)C)C2O)[C@](C)(OC)C[C@@H](C)CN[C@H](C)[C@H]2NC(=O)O[C@@]21C (stereo partly drawn)
observed value: ≥ 32 µg/mL
--
compound: CC[C@H]1OC(=O)[C@@]2(C)CCO[C@](C)(C[C@@H](C)CN[C@H](C)[C@H]3NC(=O)O[C@@]31C)[C@H](O[C@@H]1O[C@H](CNC34CC(C3)C4)C[C@H](N(C)C)[C@H]1O)[C@@H](C)C2=O
observed value: ≥ 32 µg/mL
--
compound: CC[C@H]1OC(=O)C(C)C(=O)[C@H](C)[C@@H](O[C@@H]2O[C@H](CNC3CC3)CC(N(C)C)[C@H]2O)[C@](C)(OC)C[C@@H](C)CN(C)[C@H](C)[C@H]2NC(=O)O[C@@]21C (stereo partly drawn)
observed value: ≥ 32 µg/mL
--
compound: CC[C@H]1OC(=O)C(C)C(=O)[C@H](C)[C@@H](OC2OC(CN(C)C3CC3)CC(N(C)C)C2O)[C@](C)(OC)C[C@@H](C)CN(C)[C@H](C)[C@H]2NC(=O)O[C@@]21C (stereo partly drawn)
observed value: ≥ 32 µg/mL

The record that follows has no MIC shown yet.
Q: Reported MIC for CC[C@H]1OC(=O)C(C)C(=O)[C@H](C)[C@@H](OC2OC(CNCCS(C)(=O)=O)CC(N(C)C)C2O)[C@](C)(OC)C[C@@H](C)CN[C@H](C)[C@H]2NC(=O)O[C@@]21C (stereo partly drawn) : what is it?
Ans: ≥ 32 µg/mL
